# ASSAY_OVERVIEW: PK profile in SD rats (i.v. / oral gavage, plasma LC-MS)
# Assay type: in vivo
# TEST_CONDITIONS: female, rat, iv, GEN1-117 dosed i.v. 1 mg/kg
ASSAY_METRIC: clearance (mL/min/kg)
Kindly provide the numeric value in mL/min/kg only, without the unit symbol.

Record summary for O=C(Cc1ccc2ncccc2c1)N1CCC(n2c(=O)[nH]c3cccc(C(F)(F)F)c32)CC1 : reported clearance = 10.3

###

# inhibition at 0.1 µM annotations
# SYSTEM: hERG (Homo sapiens, UniProt Q12809)
# Construct: expressed in transfected cells; host or cells: CHO cells, stably transfected
# Sequence (Q12809 whole entry): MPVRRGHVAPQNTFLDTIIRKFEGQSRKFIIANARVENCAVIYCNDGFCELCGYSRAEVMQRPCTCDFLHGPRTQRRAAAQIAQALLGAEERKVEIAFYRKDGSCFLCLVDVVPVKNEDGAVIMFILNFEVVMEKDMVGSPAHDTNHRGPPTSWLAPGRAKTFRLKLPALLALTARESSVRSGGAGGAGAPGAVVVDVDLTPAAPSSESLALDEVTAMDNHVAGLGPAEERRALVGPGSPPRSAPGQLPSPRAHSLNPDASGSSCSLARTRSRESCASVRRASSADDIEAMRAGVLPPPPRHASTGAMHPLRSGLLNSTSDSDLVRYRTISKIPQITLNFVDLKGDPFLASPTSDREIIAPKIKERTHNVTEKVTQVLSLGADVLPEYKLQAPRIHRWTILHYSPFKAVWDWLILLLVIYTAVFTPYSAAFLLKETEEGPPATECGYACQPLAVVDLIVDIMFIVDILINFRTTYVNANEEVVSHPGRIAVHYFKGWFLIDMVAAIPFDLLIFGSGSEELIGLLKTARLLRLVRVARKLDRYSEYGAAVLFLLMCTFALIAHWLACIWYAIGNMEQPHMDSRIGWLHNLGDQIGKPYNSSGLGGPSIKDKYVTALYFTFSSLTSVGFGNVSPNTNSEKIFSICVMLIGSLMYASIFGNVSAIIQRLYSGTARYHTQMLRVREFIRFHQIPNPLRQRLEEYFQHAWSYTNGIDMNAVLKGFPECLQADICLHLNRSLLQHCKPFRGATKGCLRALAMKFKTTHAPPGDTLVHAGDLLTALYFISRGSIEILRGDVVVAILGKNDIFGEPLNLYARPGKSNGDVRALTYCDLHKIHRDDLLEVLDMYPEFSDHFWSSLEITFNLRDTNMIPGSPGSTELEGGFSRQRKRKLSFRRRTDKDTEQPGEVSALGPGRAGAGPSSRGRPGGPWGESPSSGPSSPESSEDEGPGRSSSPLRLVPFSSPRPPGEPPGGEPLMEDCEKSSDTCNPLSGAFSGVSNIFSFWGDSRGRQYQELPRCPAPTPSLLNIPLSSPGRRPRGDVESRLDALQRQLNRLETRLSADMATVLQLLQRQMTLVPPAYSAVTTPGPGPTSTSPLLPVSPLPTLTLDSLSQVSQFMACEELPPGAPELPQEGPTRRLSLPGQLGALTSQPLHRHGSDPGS
# ASSAY_OVERVIEW: hERG ion channel inhibition, automated QPatch on CHO cells expressing hERG
# Format: cell-based
# TEST_CONDITIONS: human, CHO cells stably expressing hERG channels, 0.1 μM; read-out: Mean % hERG inhibition
# Experimental: A CHO cell line stably transfected with cDNA and expressing hERG channels of P15 was used for the study. Cells were maintained in Petri dishes or flasks at 37° C. in a humidified incubator with 5% CO2 and cultured in a medium containing Ham's F12, 10% (v/v) heat-inactivated FBS, 100 μg/mL hygromycin B and 100 μg/mL geneticin (from Invitrogen). […] After achieving break-in (whole-cell) configuration, the cells were recorded for 120 s to assess current stability. […]
Kindly provide the numeric value in % only, without the unit symbol.

compound="O=C(Cc1ccc2ncccc2c1)N1CCC(n2c(=O)[nH]c3cccc(C(F)(F)F)c32)CC1 [GEN1-117]" obs_value=1.81

Record summary for O=C(Cc1ccc2ncccc2c1)N1CCC(n2c(=O)n(COP(=O)([O-])[O-])c3cccc(C(F)(F)F)c32)CC1.[Na+].[Na+] [GEN1-284 salt] : reported inhibition at 0.1 µM = 5.25

###

# SYSTEM: hERG (Homo sapiens, UniProt Q12809)
# Construct: expressed in transfected cells; host or cells: CHO cells, stably transfected
# ASSAY_OVERVIEW: hERG ion channel inhibition, automated QPatch on CHO cells expressing hERG
# Assay type: cell-based
# TEST_CONDITIONS: human, CHO cells stably expressing hERG channels, 0.1 μM; read-out: % of hERG inhibition, Cell 1
# Method: A CHO cell line stably transfected with cDNA and expressing hERG channels of P15 was used for the study. Cells were maintained in Petri dishes or flasks at 37° C. in a humidified incubator with 5% CO2 and cultured in a medium containing Ham's F12, 10% (v/v) heat-inactivated FBS, 100 μg/mL hygromycin B and 100 μg/mL geneticin (from Invitrogen). […] After achieving break-in (whole-cell) configuration, the cells were recorded for 120 s to assess current stability. […]
# inhibition at 0.1 µM annotations
Kindly provide the numeric value in % only, without the unit symbol.

compound=O=C(Cc1ccc2ncccc2c1)N1CCC(n2c(=O)[nH]c3cccc(C(F)(F)F)c32)CC1 obs_value=3.84

Here is another compound to look at.
Record summary for O=C(Cc1ccc2ncccc2c1)N1CCC(n2c(=O)n(COP(=O)([O-])[O-])c3cccc(C(F)(F)F)c32)CC1.[Na+].[Na+] [GEN1-284 salt] : reported inhibition at 0.1 µM = 2.22

###

# ASSAY_OVERVIEW: PK profile in SD rats (i.v. / oral gavage, plasma LC-MS)
# Type: in vivo
# TEST_CONDITIONS: female, rat, po, GEN1-284s dosed p.o. 10 mg/kg, analyte = labelled compound
ASSAY_METRIC: AUC(0-t) (ng·h/mL)
Kindly provide the numeric value in ng·h/mL only, without the unit symbol.

Record summary for O=C(Cc1ccc2ncccc2c1)N1CCC(n2c(=O)n(COP(=O)([O-])[O-])c3cccc(C(F)(F)F)c32)CC1.[Na+].[Na+] [GEN1-284 salt] : reported AUC(0-t) = 5.72

###

# ASSAY_OVERVIEW: PK profile in SD rats (i.v. / oral gavage, plasma LC-MS)
# Format: in vivo
# TEST_CONDITIONS: female, rat, iv, GEN1-284s dosed i.v. 1 mg/kg, analyte = labelled compound
ASSAY_METRIC: AUC(0-t) (ng·h/mL)
Kindly provide the numeric value in ng·h/mL only, without the unit symbol.

Record summary for O=C(Cc1ccc2ncccc2c1)N1CCC(n2c(=O)n(COP(=O)([O-])[O-])c3cccc(C(F)(F)F)c32)CC1.[Na+].[Na+] [GEN1-284 salt] : reported AUC(0-t) = 2750

###

# ASSAY_OVERVIEW: PK profile in SD rats (i.v. / oral gavage, plasma LC-MS)
# Assay type: in vivo
# TEST_CONDITIONS: female, rat, po, 10 mg/kg, GEN1-117 dosed p.o. 10 mg/kg
ASSAY_METRIC: AUC(0-t) (ng·h/mL)
Kindly provide the numeric value in ng·h/mL only, without the unit symbol.

Record summary for O=C(Cc1ccc2ncccc2c1)N1CCC(n2c(=O)[nH]c3cccc(C(F)(F)F)c32)CC1 [GEN1-117] : reported AUC(0-t) = 423

###

# SYSTEM: hERG (Homo sapiens, UniProt Q12809)
# Construct: expressed in transfected cells; host or cells: CHO cells, stably transfected
# ASSAY_OVERVIEW: hERG ion channel inhibition, automated QPatch on CHO cells expressing hERG
# Assay type: cell-based
# TEST_CONDITIONS: human, CHO cells stably expressing hERG channels, 30 μM; read-out: % of hERG inhibition, Cell 1
# inhibition at 30 µM annotations
Kindly provide the numeric value in % only, without the unit symbol.

Entry O=C(Cc1ccc2ncccc2c1)N1CCC(n2c(=O)n(COP(=O)([O-])[O-])c3cccc(C(F)(F)F)c32)CC1.[Na+].[Na+] [GEN1-284 salt] under hERG (Homo sapiens, UniProt Q12809) had inhibition at 30 µM of 19.1

Entry O=C(Cc1ccc2ncccc2c1)N1CCC(n2c(=O)[nH]c3cccc(C(F)(F)F)c32)CC1 under hERG (Homo sapiens, UniProt Q12809) had inhibition at 30 µM of 12.8
